# measured on: human PGD receptor (Homo sapiens)
# Sequence (Q13258 whole entry): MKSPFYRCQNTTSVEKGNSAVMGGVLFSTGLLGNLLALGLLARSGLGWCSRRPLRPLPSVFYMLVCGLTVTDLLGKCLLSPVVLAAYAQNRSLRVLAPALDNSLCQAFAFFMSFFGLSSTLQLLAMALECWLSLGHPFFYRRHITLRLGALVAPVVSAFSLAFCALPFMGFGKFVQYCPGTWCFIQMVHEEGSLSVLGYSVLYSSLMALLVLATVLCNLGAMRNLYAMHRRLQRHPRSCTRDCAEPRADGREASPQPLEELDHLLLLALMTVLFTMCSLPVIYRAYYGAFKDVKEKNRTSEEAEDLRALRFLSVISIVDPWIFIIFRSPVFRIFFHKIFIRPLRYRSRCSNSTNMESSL
# protocol summary: cAMP antagonism test on the human prostaglandin D receptor (HTRF cAMP detection)
# Assay type: cell-based
# condition context: selectivity towards hDP, IC50 measured by cAMP antagonism test
readout type: Selectivity hEP2/hDP

Example cases with answers are listed next.
Cc1c(C(=O)NCC(F)(F)F)ccc2nn(CC3CN(C(=O)c4ccc(Cl)cc4)C3)cc12; xx (xx: 10-100)
COCCNC(=O)c1cc2cn(CC3CN(C(=O)c4ccc(-c5ccc(F)cc5)cc4)C3)nc2cc1C; xxx (xxx > 100)
Cc1c(C(=O)NCCS(C)(=O)=O)ccc2nn(CC3CCN(C(=O)c4ccc(Oc5ccc(C(F)(F)F)cn5)cc4)CC3)cc12; xxx (xxx > 100)
COCCNC(=O)c1ccc2nn(CC3CCN(C(=O)c4ccc(-c5ccc(C(C)(C)O)cc5)cc4)CC3)cc2c1C; xxx (xxx > 100)

Would you kindly look at the next entry?
If you can, please state the reported Selectivity hEP2/hDP value of "COCCNC(=O)c1ccc2nn(CC3CCN(C(=O)c4ccc(Oc5ccccn5)cc4)CC3)cc2c1C" .
xxx (xxx > 100)

====

# measured on: EP2 subtype of the human PGE2 receptor (Homo sapiens, UniProt P43116)
# Sequence (P43116 whole entry): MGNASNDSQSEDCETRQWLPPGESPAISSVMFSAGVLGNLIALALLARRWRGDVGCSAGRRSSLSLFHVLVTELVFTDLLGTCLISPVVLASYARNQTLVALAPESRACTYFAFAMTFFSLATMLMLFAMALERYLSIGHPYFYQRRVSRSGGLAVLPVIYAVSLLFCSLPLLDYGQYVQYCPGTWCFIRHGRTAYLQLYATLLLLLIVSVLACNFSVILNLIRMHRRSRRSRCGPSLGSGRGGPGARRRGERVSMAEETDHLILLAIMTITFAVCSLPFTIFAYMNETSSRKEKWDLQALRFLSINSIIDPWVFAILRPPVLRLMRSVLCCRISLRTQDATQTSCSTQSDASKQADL
# protocol summary: cAMP antagonism test on the human EP2 receptor (HTRF cAMP detection)
# Format: cell-based
# condition context: hEP2 receptor, read-out: Antagonism hEP2 IC50
pIC50: −log10 of the molar value.
readout type: pIC50

Example cases with answers are listed next.
Cc1c(C(=O)NCCN2CCOCC2)ccc2nn(CC3CN(C(=O)c4ccc(Cl)cc4)C3)cc12 [Example 128]; 6.33
COCCNC(=O)c1ccc2nn(CC3CCN(C(=O)c4ccc(-c5ccc(OC)cn5)cc4)CC3)cc2c1C [Example 373]; 7.39

1. Cc1cc2nn(CC3CN(C(=O)c4ccc(OC(F)(F)F)cc4)C3)cc2cc1C(=O)NCCSC(F)(F)F [Example 194]
2. Cc1c(C(=O)NCC(F)(F)F)ccc2nn(CC3CN(C(=O)c4ccc(Oc5ccc(C(F)(F)F)cn5)cc4)C3)cc12 [Example 177]
Compare 1 and 2 by numeric pIC50 and name the larger one. Answer format: the label of the selected item.
1
(1: 7.39, 2: 6.93)

====

# measured on: EP2 subtype of the human PGE2 receptor (Homo sapiens)
# protocol summary: cAMP antagonism test on the human EP2 receptor (HTRF cAMP detection)
# Format: cell-based
# condition context: hEP2 receptor, read-out: Antagonism hEP2 IC50
pIC50: −log10 of the molar value.
readout type: pIC50

CCOc1c(C(=O)NCCOC)ccc2nn(CC3CCN(C(=O)c4ccc(S(F)(F)(F)(F)F)cc4)CC3)cc12 [Example 275]; 7.46

A. COCCNC(=O)c1cc2cn(CC3CN(C(=O)c4ccc(OC(F)(F)F)cc4)C3)nc2cc1C [Example 181]
B. COCCNC(=O)c1ccc2nn(CC3CCN(C(=O)c4ccc(Oc5ccccc5F)cc4)CC3)cc2c1C [Example 366]
// returns A or B , whichever has the lower pIC50 Answer format: the label of the selected item.
A
(A: 7.45, B: 7.72)

====

# measured on: EP2 subtype of the human PGE2 receptor (Homo sapiens)
# protocol summary: cAMP antagonism test on the human EP2 receptor (HTRF cAMP detection)
# Type: cell-based
# condition context: hEP2 receptor, read-out: Antagonism hEP2 IC50
pIC50: −log10 of the molar value.
readout type: pIC50

Example cases with answers are listed next.
Cc1c(C(=O)NCCN2CCOCC2)ccc2nn(CC3CCN(C(=O)c4ccc(C(F)(F)F)cc4)CC3)cc12; 5.84
Cc1c(C(=O)NCC(F)(F)F)ccc2nn(CC3CN(C(=O)c4cc5cc(F)ccc5n4C)C3)cc12; 7.87
COCCNC(=O)c1ccc2nn(CC3CCN(C(=O)c4ccc(Oc5ccc(Cl)cc5)cc4)CC3)cc2c1C; 8.44
Cc1c(C(=O)NCC(F)(F)F)ccc2nn(CC3CCN(C(=O)c4ccc(-c5ccc(F)cc5)cc4)CC3)cc12; 7.00
COCCNC(=O)c1ccc2nn(CC3CCN(C(=O)c4ccc(C)cc4F)CC3)cc2c1C; 7.76

I. COCCNC(=O)c1ccc2nn(CC3CCN(C(=O)c4ccc(OC(F)(F)F)cc4)CC3)cc2c1OC
II. COCCNC(=O)c1ccc2nn(CC3CCN(C(=O)c4ccc(-c5ccc(Cl)cc5OC)cc4)CC3)cc2c1C
Compare I and II by numeric pIC50 and name the larger one. Answer format: the label of the selected item.
II
(II: 8.23, I: 7.72)
